Below, IC50 values reported for UniProtKB P15207 across several publications.
- ASSAYED TARGET: UniProtKB P15207
- Sequence (P15207 whole entry): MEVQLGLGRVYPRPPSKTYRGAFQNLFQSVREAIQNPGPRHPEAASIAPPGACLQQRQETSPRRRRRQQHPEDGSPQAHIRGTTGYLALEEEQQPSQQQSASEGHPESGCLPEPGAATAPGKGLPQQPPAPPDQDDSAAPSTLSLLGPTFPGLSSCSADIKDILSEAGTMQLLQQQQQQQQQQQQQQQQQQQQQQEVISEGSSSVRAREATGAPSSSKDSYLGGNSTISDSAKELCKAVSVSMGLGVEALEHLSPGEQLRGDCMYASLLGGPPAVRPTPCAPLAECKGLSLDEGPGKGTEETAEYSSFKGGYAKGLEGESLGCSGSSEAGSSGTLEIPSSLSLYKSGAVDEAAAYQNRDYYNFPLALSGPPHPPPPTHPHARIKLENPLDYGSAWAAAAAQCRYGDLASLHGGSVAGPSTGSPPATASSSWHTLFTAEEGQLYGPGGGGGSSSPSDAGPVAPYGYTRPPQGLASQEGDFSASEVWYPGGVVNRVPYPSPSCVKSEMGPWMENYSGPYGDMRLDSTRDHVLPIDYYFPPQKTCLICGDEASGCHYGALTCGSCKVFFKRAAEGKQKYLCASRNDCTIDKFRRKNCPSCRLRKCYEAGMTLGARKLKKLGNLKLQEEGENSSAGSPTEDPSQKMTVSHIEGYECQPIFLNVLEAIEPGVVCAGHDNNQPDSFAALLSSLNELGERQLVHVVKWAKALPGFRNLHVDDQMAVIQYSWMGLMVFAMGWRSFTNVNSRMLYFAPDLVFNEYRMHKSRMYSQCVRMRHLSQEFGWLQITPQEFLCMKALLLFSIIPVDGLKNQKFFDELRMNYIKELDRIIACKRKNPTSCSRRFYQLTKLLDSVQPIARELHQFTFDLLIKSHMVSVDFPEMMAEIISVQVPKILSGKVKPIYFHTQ
QUANTITY MEASURED: IC50 (µM)

P = CC(=O)[C@H]1CC[C@H]2[C@@H]3CCC4N(C)C(=O)CC[C@]4(C)[C@H]3CC[C@]12C (some centres undefined)
Q = CC(CCC(=O)[O-])[C@H]1CC[C@H]2[C@@H]3CCC4N(C)C(=O)CC[C@]4(C)[C@H]3CC[C@]12C.[Na+] (some centres undefined)
R = CN1C(=O)CC[C@@]2(C)C1CC[C@H]1[C@@H]3CC[C@H](C(=O)[O-])[C@@]3(C)CC[C@@H]12.[Na+] (some centres undefined)
S = Cn1c2c(c3cc(O)ccc31)CSc1ccccc1-2
(Q) Sequence the entries by IC50, beginning with the highest number. Give the order by naming the labels one after another as requested.
(A) Q, R, P, S
(Q: 21 µM, R: 9.1 µM, P: 0.21 µM, S: 0.11 µM)

a = CN1C(=O)CC[C@@]2(C)C1CC[C@H]1[C@@H]3CC[C@H](C(=O)N4CCOCC4)[C@@]3(C)CC[C@@H]12 (some centres undefined)
b = c1ccc([C@H]2COC[C@H]2c2ccccc2)cc1
(Q) Task for the reader: decide whether a or b has the larger IC50. API: response body contains the label of the selected item.
(A) b

I = Cl/C=C(\c1ccc(Cl)cc1)c1ccccc1Cl
II = CC(=O)N[C@H]1CC[C@H]2[C@@H]3CCC4N(C)C(=O)CC[C@]4(C)[C@H]3CC[C@]12C (some centres undefined)
(Q) Hi team, can someone confirm which has the larger IC50: I or II ? Thanks. Your answer should be the label attached to the chosen record.
(A) I
